Provenance of the data: the supplement of paper PMC10567573

Test Name: protein stability index of a GFP-peptide fusion (GPS, HEK-293T) (PSI 1-6); higher = more stable;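 further: 24-mer peptide tiles fused after GFP, lentivirally expressed, FACS-sorted into six equal bins by GFP/DsRed ratio, decoded by Illumina sequencing, PSI is the read-weighted mean bin number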
Protocol Conditions: treatment: MLN4924 1 uM, 8 h; c terminus: a fixed tail appended
Give measured protein stability index for each item. Keep answers brief.
Numbers only.

Reference set (3 entries):
VLKDELQLYGDAPGEVVPSGESGL [TMEM40]	5.26
RTISCHVQNGTYLQRVLQNCPWPM [EMID1]	2.02
MKKAKEQLKIRKSNQIPTEVRSKA [FUNDC2]	4.76

Could I get protein stability index for every one of these entries?
1. LAVYIDKVRSLETENSALQLQVTE [LMNB1]
2. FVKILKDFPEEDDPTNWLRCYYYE [NCF4]
3. TGFLIIILAIIAKEGDCAPEEKIW [MAGEA6]
4. NQYLYFLFAPTLIYRDSYPRNPTV [SOAT1]
5. SLGSALKPGEGRSALFAGNEWRRP [TRIM29]
6. GGAGSSEDDAQSRRDEQDDDDKGD [GOLPH3]
7. INYKLKSVAHLPWRMLTYKALNTF [CLPTM1]
8. EACMTHLHYKWIPVEDSHTADISS [DUSP5]

[2.52, 2.55, 2.71, 2.57, 3.31, 5.69, 2.31, 3.63]

Could I get protein stability index for every one of these entries?
1. ERVTVAKLTLENFYSNLILQHEER [STK38L]
2. EHPNLVRDHVETELLKEAELIRNI [TEKT4]

[2.99, 4.56]

Could I get protein stability index for every one of these entries?
1. SSAVSGVKEWFGLGGEQAEEKAFE [MIA2]
2. EECAKWLLLNNANPNLSNRRGSTP [RIPK4]
3. QTGEWQNIAIMTEEPELSPAYLIS [GFOD1]
4. GTKCHGCDFKIDAGDRFLEALGFS [PDLIM7]

1. 5.04
2. 3.71
3. 3.25
4. 2.42

Could I get protein stability index for every one of these entries?
1. TLDLSDLEAEKLVMFQRRYYKPGL [SCD]
2. IHQESGKAPSTDDATWAAVAACTK [C10orf62]

1: 2.88; 2: 4.72

Could I get protein stability index for every one of these entries?
1. GRSSMGTGLSGGKRPSQEEDTQSI [CRY1]
2. AGGSARRPDTGDDAAGHGFCYCAG [GMCL1]
3. TLHGNVCSFCKRAFPSGHLLDAHI [ZNF511]
4. PAGTPPPTARHFQEHPRQQLATSS [MOSPD3]

[5.37, 4.13, 2.95, 4.83]

Could I get protein stability index for every one of these entries?
1. AQDSIELLTTSGIQFKKHEEEGIE [CNOT7]
2. RTARALLDRDALKQSLVVAVQDHG [PCDHGA10]
3. SEDSFCRRHPGLGKAFPSGCSAVS [TRAF3IP2]
4. VKAATTEPTEVEEVVPALEPTETL [BCL2L13]

[5.48, 3.87, 3.46, 5.67]
